The origin of these recorded values is patent US20240158348A1.

Reported Galium plant response rating values for the following compounds.
- System: galium (catchweed bedstraw, Galium aparine)
- assay_notes: Test C postemergence, galium
- Type: in vivo
- measurement_parameters: 125 g ai/ha Postemergence; visual injury, 0 to 100 scale (0 no effect, 100 complete control)
attribute_measured: Galium plant response rating

compound | attribute_measured | test_result
Cc1cc(C)c(N2CCC(OCc3ccccc3)C2=O)cc1NS(=O)(=O)C(F)(F)F (stereo not drawn) [Compound 61] | Galium plant response rating | 90
Cc1c(N2CCC(OC3CC3)C2=O)cc(N(C(=O)OCC(C)C)S(=O)(=O)C(F)(F)F)c(C)c1C (stereo not drawn) [Compound 50] | Galium plant response rating | 100
CC#CCOC1CCN(c2cc(NS(=O)(=O)C(F)(F)F)c(C)cc2C)C1=O (stereo not drawn) [Compound 60] | Galium plant response rating | 100
Cc1c(N2CCC(OC3CCC3)C2=O)cc(N(C(=O)OCC(C)C)S(=O)(=O)C(F)(F)F)c(C)c1C (stereo not drawn) [Compound 48] | Galium plant response rating | 100
Cc1cc(C)c(N2CCC(OCC3CCC3)C2=O)cc1NS(=O)(=O)C(F)(F)F (stereo not drawn) [Compound 43] | Galium plant response rating | 90
Cc1c(N2CCC(OC3CC3)C2=O)cc(N(COC(=O)C(C)(C)C)S(=O)(=O)C(F)(F)F)c(C)c1C (stereo not drawn) [Compound 49] | Galium plant response rating | 90
Cc1c(N2CCC(OC3CCC3)C2=O)cc(N(COC(=O)C(C)(C)C)S(=O)(=O)C(F)(F)F)c(C)c1C (stereo not drawn) [Compound 51] | Galium plant response rating | 90
Cc1c(NS(=O)(=O)C(F)(F)F)cc(N2CCC(OCC3CCC3)C2=O)c(C)c1F (stereo not drawn) [Compound 64] | Galium plant response rating | 100
Cc1c(NS(=O)(=O)C(F)(F)F)cc(N2CCC(OC3CCC3)C2=O)c(C)c1C (stereo not drawn) [Compound 45] | Galium plant response rating | 100
